- Tested on: 994946-033-R-J1-PDC complex spheroid viability
- experiment description: Anticancer human tumor 994946-033-R-J1-PDC patient-derived melanoma cell line growth inhibition [POLQ]; active = viability on the fitted dose curve at most 10% of control; inactive = the rest
- condition summary: second compound 1 µM; first compound 0.01 µM
Outcomes you can answer with include only these: active, inactive

COc1cccc(OCCCN)c1-c1cc(Nc2cnc(C#N)cn2)n[nH]1 + COC1C(OC(N)=O)C(O)C(Oc2ccc3c(O)c(NC(=O)c4ccc(O)c(CC=C(C)C)c4)c(=O)oc3c2C)OC1(C)C    inactive

Query: Kindly provide the recorded test outcome for the following compound: CCc1c2c(nc3ccc(O)cc13)-c1cc3c(c(=O)n1C2)COC(=O)[C@]3(O)CC + Nc1ccc(C#CCN(C(=O)Cc2ncc(C(F)(F)F)cc2C(F)(F)F)c2ccc(F)cc2)nn1
Result: inactive

---

Form field: viability, T/C (one value per entry).
- System: 994946-033-R-J1-PDC complex spheroid viability
- experiment description: Anticancer human tumor 994946-033-R-J1-PDC cell line growth inhibition [POLQ];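 also: spheroids exposed to drugs for 7 days; 100% = DMSO vehicle treated spheroids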
- condition summary: second compound 10 µM; first compound 0.0316 µM; hits give low values
Give just the numeric value; % need not be written.

A selection of reference data follows.
CCc1cc2c(N3CCc4c(cc(Cn5ccnc5)cc4-c4cn(C)nc4C(F)(F)F)C3=O)cc(C)nc2c(OC)n1 + Cc1cccc(N(C)C(=O)C2C(O)CCN2c2nc(C)cc(C(F)(F)F)c2C#N)c1    76
CC1COCCN1c1cc(C2(O)CC3CCC(C2)O3)c2cnn(-c3ccn[nH]3)c2n1 (stereo not given) + Cc1cccc(N(C)C(=O)C2C(O)CCN2c2nc(C)cc(C(F)(F)F)c2C#N)c1    47.1

Query: What value of viability, T/C has been recorded for this entry: C=CC(=O)N1CCN(c2nc(=O)n(-c3c(C)ccnc3C(C)C)c3nc(-c4c(O)cccc4F)c(F)cc23)C(C)C1 (stereo not given) + Nc1ccc(C#CCN(C(=O)Cc2ncc(C(F)(F)F)cc2C(F)(F)F)c2ccc(F)cc2)nn1
Result: 110

Query: What value of viability, T/C has been recorded for this entry: COc1cc2cc(C(=O)CCC(=O)O)sc2cc1OC + COC1C(OC(N)=O)C(O)C(Oc2ccc3c(O)c(NC(=O)c4ccc(O)c(CC=C(C)C)c4)c(=O)oc3c2C)OC1(C)C
Result: 90.8

Query: What value of viability, T/C has been recorded for this entry: COc1cccc(OCCCN)c1-c1cc(Nc2cnc(C#N)cn2)n[nH]1 + Nc1ccc(C#CCN(C(=O)Cc2ncc(C(F)(F)F)cc2C(F)(F)F)c2ccc(F)cc2)nn1
Result: 30.5

---

Form field: viability, T/C (one value per entry).
- Test system: 994946-033-R-J1-PDC complex spheroid viability
- experiment description: Anticancer human tumor 994946-033-R-J1-PDC cell line growth inhibition [POLQ];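 also: spheroids exposed to drugs for 7 days; 100% = DMSO vehicle treated spheroids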
- condition summary: second compound 0.316 µM; first compound 0.1 µM; hits give low values
Give just the numeric value; % need not be written.

A selection of reference data follows.
CC1COCCN1c1cc(C2(O)CC3CCC(C2)O3)c2cnn(-c3ccn[nH]3)c2n1 (stereo not given) + COC1C(OC(N)=O)C(O)C(Oc2ccc3c(O)c(NC(=O)c4ccc(O)c(CC=C(C)C)c4)c(=O)oc3c2C)OC1(C)C    29.5
CC1COCCN1c1cc(C2(O)CC3CCC(C2)O3)c2cnn(-c3ccn[nH]3)c2n1 (stereo not given) + Cc1cccc(N(C)C(=O)C2C(O)CCN2c2nc(C)cc(C(F)(F)F)c2C#N)c1    26.4
Cn1ncnc1[C@H]1c2n[nH]c(=O)c3cc(F)cc(c23)N[C@@H]1c1ccc(F)cc1 + Nc1ccc(C#CCN(C(=O)Cc2ncc(C(F)(F)F)cc2C(F)(F)F)c2ccc(F)cc2)nn1    51
Cn1ncnc1[C@H]1c2n[nH]c(=O)c3cc(F)cc(c23)N[C@@H]1c1ccc(F)cc1 + Cc1cccc(N(C)C(=O)C2C(O)CCN2c2nc(C)cc(C(F)(F)F)c2C#N)c1    56
C=CC(=O)N1CCN(c2nc(=O)n(-c3c(C)ccnc3C(C)C)c3nc(-c4c(O)cccc4F)c(F)cc23)C(C)C1 (stereo not given) + Nc1ccc(C#CCN(C(=O)Cc2ncc(C(F)(F)F)cc2C(F)(F)F)c2ccc(F)cc2)nn1    52.8

Query: Notebook: pull reported viability, T/C for 994946-033-R-J1-PDC complex spheroid viability, entry CNCc1ccc(-c2[nH]c3cc(F)cc4c3c2CCNC4=O)cc1 + COC1C(OC(N)=O)C(O)C(Oc2ccc3c(O)c(NC(=O)c4ccc(O)c(CC=C(C)C)c4)c(=O)oc3c2C)OC1(C)C
Result: 126

Query: Notebook: pull reported viability, T/C for 994946-033-R-J1-PDC complex spheroid viability, entry COc1cc(C2c3cc4c(cc3C(OC3OC5COC(C)OC5C(O)C3O)C3COC(=O)C23)OCO4)cc(OC)c1O (stereo not given) + Nc1ccc(C#CCN(C(=O)Cc2ncc(C(F)(F)F)cc2C(F)(F)F)c2ccc(F)cc2)nn1
Result: 69.9

Query: Notebook: pull reported viability, T/C for 994946-033-R-J1-PDC complex spheroid viability, entry O=C(c1cc(Cc2n[nH]c(=O)c3ccccc23)ccc1F)N1CCN(C(=O)C2CC2)CC1 + COC1C(OC(N)=O)C(O)C(Oc2ccc3c(O)c(NC(=O)c4ccc(O)c(CC=C(C)C)c4)c(=O)oc3c2C)OC1(C)C
Result: 82.2

Query: Notebook: pull reported viability, T/C for 994946-033-R-J1-PDC complex spheroid viability, entry COc1cc(C2c3cc4c(cc3C(OC3OC5COC(C)OC5C(O)C3O)C3COC(=O)C23)OCO4)cc(OC)c1O (stereo not given) + Cc1cccc(N(C)C(=O)C2C(O)CCN2c2nc(C)cc(C(F)(F)F)c2C#N)c1
Result: 63.1

Query: Notebook: pull reported viability, T/C for 994946-033-R-J1-PDC complex spheroid viability, entry CC1COCCN1c1cc(C2(S(C)(=N)=O)CC2)nc(-c2ccnc3[nH]ccc23)n1 (stereo not given) + COC1C(OC(N)=O)C(O)C(Oc2ccc3c(O)c(NC(=O)c4ccc(O)c(CC=C(C)C)c4)c(=O)oc3c2C)OC1(C)C
Result: 116
